target: SARS-CoV-2 Mac1 (Severe acute respiratory syndrome coronavirus 2)
assay_method_text: biochemical
test_context: read-out: %inhibition
Counter-ions that a name gives are not always drawn.
Below, each entry is listed alongside its reported inhibition at 100 µM.
Return type: number; implicit unit %.

compound	inhibition at 100 µM [%]
CN1CCN2c3ncccc3Cc3ccccc3C2C1 (stereo not drawn) [Mirtazapine]	7.99

In: What does the data say about its inhibition at 100 µM? Entry: C[C@@H](O[C@H]1OCCN(Cc2n[nH]c(=O)[nH]2)[C@H]1c1ccc(F)cc1)c1cc(C(F)(F)F)cc(C(F)(F)F)c1 [Aprepitant]
Out: 10.1

In: And for C[C@@H]1CCO[C@H]2Cn3cc(C(=O)NCc4ccc(F)cc4F)c(=O)c(O)c3C(=O)N12 [Dolutegravir (GSK1349572)] ?
Out: 9.9

In: Repeat for the following compound: C[C@H]1COc2c(C3(N)CC3)c(F)cc3c(=O)c(C(=O)O)cn1c23 [Pazufloxacin mesylate]
Out: 0

In: Moving on to OCCN1CCN(CCCN2c3ccccc3Sc3ccc(Cl)cc32)CC1 [Perphenazine]
Out: 0

In: Follow-up entry: N#C[C@@H]1C[C@@H]2C[C@@H]2N1C(=O)[C@@H](N)C12CC3CC(CC(O)(C3)C1)C2 [Saxagliptin hydrate]
Out: 8.79

In: Could you do the same for O=C(O)CCCc1ccccc1 [Sodium Phenylbutyrate] , please?
Out: 6.6

In: Can you check Cc1c(Nc2ncccc2C(=O)O)cccc1C(F)(F)F [Flunixin Meglumin] next?
Out: 0

In: Queued: O=C(Cn1ccnc1[N+](=O)[O-])NCc1ccccc1 [Benznidazole]
Out: 0

In: Check CC[C@@H]1/C=C(\C)C[C@H](C)C[C@H](OC)[C@H]2O[C@@](O)(C(=O)C(=O)N3CCCC[C@H]3C(=O)O[C@H](/C(C)=C/[C@@H]3CC[C@H](Cl)[C@H](OC)C3)[C@H](C)[C@@H](O)CC1=O)[C@H](C)C[C@@H]2OC [Pimecrolimus] too.
Out: 25.5

In: Also COc1cc(C)c(/C=C/C(C)=C/C=C/C(C)=C/C(=O)O)c(C)c1C [Acitretin] ?
Out: 7.72

In: Another: CC(=O)OCC(=O)[C@@]12OC(C)(C)O[C@@H]1C[C@H]1[C@@H]3C[C@H](F)C4=CC(=O)C=C[C@]4(C)[C@@]3(F)[C@@H](O)C[C@@]12C [Fluocinonide]
Out: 24.1

In: // query: CN1[C@@H]2C[C@@H](OC(=O)[C@H](CO)c3ccccc3)C[C@H]1[C@@H]1O[C@@H]12 [Scopolamine HBr]
Out: 0

In: Now consider C=C1C[C@@H]2[C@H](CC[C@]3(C)C(=O)CC[C@@H]23)[C@@]2(C)C=CC(=O)C=C12 [Exemestane] and answer again.
Out: 11.1

In: Repeat for the following compound: COC(=O)CCC(=O)CN [Methyl Aminolevulinate Hydrochloride]
Out: 3.98

---

Parameter inhibition at 100 µM: see the listing below.
target: SARS-CoV-2 Mac1 (Severe acute respiratory syndrome coronavirus 2)
assay_method_text: biochemical
test_context: read-out: %inhibition
Where a name gives a salt, the structure may show the parent alone.
Only the number, expressed in %, is required.

Worked cases, inhibition at 100 µM given:
compound	units	inhibition at 100 µM
N[C@H]1C(O)O[C@H](CO)[C@@H](O)[C@@H]1O (stereo partly drawn) [Glucosamine hydrochloride]	%	0
CC(C)Nc1cc(-c2c[nH]c(C(=O)N[C@H](CO)c3cccc(Cl)c3)c2)c(Cl)cn1 [Ulixertinib (BVD-523, VRT752271)]	%	24.8
CC(C)/N=c1\cc2n(-c3ccc(Cl)cc3)c3ccccc3nc-2cc1Nc1ccc(Cl)cc1 [Clofazimine]	%	5.33

In: Name the recorded inhibition at 100 µM for Cc1ncc(CO)c(CO)c1O [Pyridoxine] .
Out: 0

In: Note, next up: CO/N=C(\C(=O)N[C@@H]1C(=O)N2C(C(=O)O)=C(COC(C)=O)CS[C@H]12)c1csc(N)n1 [Cefotaxime sodium]
Out: 0.981

---

target: SARS-CoV-2 Mac1 (Severe acute respiratory syndrome coronavirus 2, UniProt P0DTD1)
assay_method_text: biochemical
test_context: read-out: %inhibition
Where a name gives a salt, the structure may show the parent alone.
experimental_endpoint: inhibition at 100 µM (%)
Give a bare numeral; the unit % is implied.

molecule	inhibition at 100 µM (%)
CCCc1nc(C(C)(C)O)c(C(=O)OCc2oc(=O)oc2C)n1Cc1ccc(-c2ccccc2-c2nnn[nH]2)cc1	0
O[C@@H](COc1cccc2ncccc12)CN1CCN(C2c3ccccc3[C@@H]3[C@H](c4ccccc42)C3(F)F)CC1 (stereo partly shown) [Zosuquidar (LY335979) 3HCl]	0
NC(CO)C(=O)NNCc1ccc(O)c(O)c1O (stereo not shown) [Benserazide HCl]	7.42
CN/C(=N\CCSCc1nc[nH]c1C)NC#N	20.9
O=C(N[C@H](CO)[C@H](O)c1ccc([N+](=O)[O-])cc1)C(Cl)Cl	0
c1ccc(C2CN3CCSC3=N2)cc1 (stereo not shown) [Tetramisole HCl]	0
CC#C[C@]1(O)CC[C@H]2[C@@H]3CCC4=CC(=O)CCC4=C3[C@@H](c3ccc(N(C)C)cc3)C[C@@]21C	8.31
O=C(Nc1c(Cl)cncc1Cl)c1ccc(OC(F)F)c(OCC2CC2)c1	5.88

Turning now to a further molecule:
In: What value of measured inhibition at 100 µM is listed for O=C(O)C[C@H](O)C[C@H](O)/C=C/c1c(C2CC2)nc2ccccc2c1-c1ccc(F)cc1 ?
Out: 13.3

---

target: SARS-CoV-2 Mac1 (Severe acute respiratory syndrome coronavirus 2, UniProt P0DTD1)
assay_method_text: biochemical
test_context: read-out: %inhibition
Counter-ions that a name gives are not always drawn.
experimental_endpoint: inhibition at 100 µM (%)
# value in %; strip the unit string

Consider the following illustrative entries.
molecule	result_value
Cc1nnc(C(C)C)n1[C@@H]1C[C@H]2CC[C@@H](C1)N2CC[C@H](NC(=O)C1CCC(F)(F)CC1)c1ccccc1 [Maraviroc]	24.2
Cc1ccccc1N1C(=O)c2cc(S(N)(=O)=O)c(Cl)cc2NC1C (stereo not shown) [Metolazone]	0
CCCN1C[C@H](CSC)C[C@@H]2c3cccc4[nH]cc(c34)C[C@H]21 [Pergolide Mesylate]	7.58

Let's switch to this molecule now.
In: Look up inhibition at 100 µM: N[C@H]1C[C@@H]1c1ccccc1 [Tranylcypromine (2-PCPA) HCl]
Out: 0

---

target: SARS-CoV-2 Mac1 (Severe acute respiratory syndrome coronavirus 2)
assay_method_text: biochemical
test_context: read-out: %inhibition
Here, each record is paired with measured inhibition at 100 µM data.
# value in %; strip the unit string

The cases that follow already have their inhibition at 100 µM on record.
compound	experimental_endpoint	result_value
CO/N=C(\C(=O)N[C@@H]1C(=O)N2C(C(=O)OCOC(=O)C(C)(C)C)=C(/C=C\c3scnc3C)CS[C@H]12)c1csc(N)n1	inhibition at 100 µM	0
CC(=O)O[C@H]1C[C@@]2(C)[C@@H](C[C@@H](O)[C@H]3[C@@]4(C)CC[C@@H](O)[C@@H](C)[C@@H]4CC[C@@]32C)/C1=C(\CCC=C(C)C)C(=O)O [Fusidate Sodium]	inhibition at 100 µM	3.17

In: If you can, please state the reported inhibition at 100 µM value of CC(C)(C)C#Cc1cc(N(C(=O)[C@H]2CC[C@H](C)CC2)[C@H]2CC[C@H](O)CC2)c(C(=O)O)s1 .
Out: 2.87

In: Next record, please: NC(=O)OCC(COC(N)=O)c1ccccc1 [Felbamate]
Out: 22

In: What do you get for Cc1c(NC(=O)c2cccnc2)c(=O)n(-c2ccccc2)n1C ?
Out: 3.55

---

target: SARS-CoV-2 Mac1 (Severe acute respiratory syndrome coronavirus 2, UniProt P0DTD1)
assay_method_text: biochemical
test_context: read-out: %inhibition
Counter-ions that a name gives are not always drawn.
This section presents molecules with their documented inhibition at 100 µM values.
Report as a plain number; the unit % is understood.

In the examples that follow, each entry is paired with its recorded inhibition at 100 µM.
molecule	target	inhibition at 100 µM [%]
Nc1nc2ccc(OC(F)(F)F)cc2s1 [Riluzole]	SARS-CoV-2 Mac1 (Severe acute respiratory syndrome coronavirus 2, UniProt P0DTD1)	0
CCNC1(c2cccs2)CCCCC1=O (stereo not drawn) [Tiletamine Hydrochloride]	SARS-CoV-2 Mac1 (Severe acute respiratory syndrome coronavirus 2, UniProt P0DTD1)	0
COc1cc(C(=O)NCc2ccc(OCCN(C)C)cc2)cc(OC)c1OC [Tribenzagan Hydrochloride]	SARS-CoV-2 Mac1 (Severe acute respiratory syndrome coronavirus 2, UniProt P0DTD1)	0
C=C[C@@H]1C[C@]1(NC(=O)[C@@H]1C[C@@H]2CN1C(=O)[C@H](C(C)(C)C)NC(=O)O[C@@H]1C[C@H]1CCCCCc1nc3ccc(OC)cc3nc1O2)C(=O)NS(=O)(=O)C1CC1 [Grazoprevir]	SARS-CoV-2 Mac1 (Severe acute respiratory syndrome coronavirus 2, UniProt P0DTD1)	0
N#Cc1ccnc(N2C(=O)CC[C@H]2C(=O)N(c2cncc(F)c2)[C@H](C(=O)NC2CC(F)(F)C2)c2ccccc2Cl)c1 [Ivosidenib (AG-120)]	SARS-CoV-2 Mac1 (Severe acute respiratory syndrome coronavirus 2, UniProt P0DTD1)	9.59

In: Test system SARS-CoV-2 Mac1 (Severe acute respiratory syndrome coronavirus 2, UniProt P0DTD1); read-out inhibition at 100 µM; what value for C[C@H]1[C@H](OC(=O)CCC(=O)O)O[C@@H]2O[C@@]3(C)CC[C@H]4[C@H](C)CC[C@@H]1[C@@]24OO3 [Artesunate] ?
Out: 0
